Test system: Panc-1 cells
Assay: Protein expression using high content cell imaging system, and efficacy score; on GADD45-α protein expression: test concentration or dose not given here
Format: cell-based
Conditions: 36 hours post treatment; control 19
ENDPOINT_NAME: GADD45-α protein expression (fluorescence units)
Return type: number; implicit unit fluorescence units.

Below are worked cases with known answers.
[
  {
    "COMPOUND": "CN1CC[C@@H](c2c(O)cc(O)c3c(=O)cc(-c4ccc(C(F)(F)F)cc4Cl)oc23)[C@@H]1CO.Cl (relative stereo) [P1446A]",
    "UNIT_LABEL": "fluorescence units",
    "GADD45-α protein expression": 43
  },
  {
    "COMPOUND": "CN1CC[C@H](c2c(O)cc(O)c3c(=O)cc(-c4ccccc4Cl)oc23)[C@H](O)C1 [Flavopiridol]",
    "UNIT_LABEL": "fluorescence units",
    "GADD45-α protein expression": 5
  },
  {
    "COMPOUND": "CC[C@H](CO)Nc1nc(NCc2ccccc2)c2ncn(C(C)C)c2n1 [Roscovitine]",
    "UNIT_LABEL": "fluorescence units",
    "GADD45-α protein expression": 44
  },
  {
    "COMPOUND": "Nc1ccn([C@@H]2O[C@H](CO)[C@@H](O)C2(F)F)c(=O)n1 [Gemcitabine, 2′, 2′-difluorodeoxycytidine]",
    "UNIT_LABEL": "fluorescence units",
    "GADD45-α protein expression": 51
  }
]

Shift focus to the following entry.
GET /values?readout=GADD45-α protein expression&item= CN1CC[C@@H](c2c(O)cc(O)c3c(=O)cc(-c4ccccc4Cl)oc23)[C@@H]1CO.Cl (relative stereo) [P276-00]
31

====

// values below are reported P27 protein expression
Test system: Panc-1 cells
Test: Protein expression using high content cell imaging system, and efficacy score; on P27 protein expression: test concentration or dose not given here
Assay type: cell-based
Conditions: 6 hours post treatment; control 6
# unit: fluorescence units | format: bare number

[
  {
    "MOLECULE": "CN1CC[C@@H](c2c(O)cc(O)c3c(=O)cc(-c4ccc(C(F)(F)F)cc4Cl)oc23)[C@@H]1CO.Cl (relative stereo) [P1446A]",
    "P27 protein expression [fluorescence units]": 4
  },
  {
    "MOLECULE": "CN1CC[C@H](c2c(O)cc(O)c3c(=O)cc(-c4ccccc4Cl)oc23)[C@H](O)C1",
    "P27 protein expression [fluorescence units]": 9
  },
  {
    "MOLECULE": "CN1CC[C@@H](c2c(O)cc(O)c3c(=O)cc(-c4ccccc4Cl)oc23)[C@@H]1CO.Cl (relative stereo)",
    "P27 protein expression [fluorescence units]": 7
  },
  {
    "MOLECULE": "Nc1ccn([C@@H]2O[C@H](CO)[C@@H](O)C2(F)F)c(=O)n1",
    "P27 protein expression [fluorescence units]": 4
  }
]

Now turn to the next molecule.
Tell me the measured P27 protein expression of "CC[C@H](CO)Nc1nc(NCc2ccccc2)c2ncn(C(C)C)c2n1" , please.
6

====

System: Panc-1 cells
Test: Protein expression using high content cell imaging system, and efficacy score; on COX15 protein expression: test concentration or dose not given here
Format: cell-based
Conditions: 16 hours post treatment; control 718
ENDPOINT_NAME: COX15 protein expression (fluorescence units)
Just the number please, in fluorescence units, no unit attached.

[
  {
    "COMPOUND": "Nc1ccn([C@@H]2O[C@H](CO)[C@@H](O)C2(F)F)c(=O)n1",
    "COX15 protein expression, fluorescence units": 1134
  },
  {
    "COMPOUND": "CN1CC[C@H](c2c(O)cc(O)c3c(=O)cc(-c4ccccc4Cl)oc23)[C@H](O)C1",
    "COX15 protein expression, fluorescence units": 459
  },
  {
    "COMPOUND": "CN1CC[C@@H](c2c(O)cc(O)c3c(=O)cc(-c4ccccc4Cl)oc23)[C@@H]1CO.Cl (relative stereo)",
    "COX15 protein expression, fluorescence units": 852
  },
  {
    "COMPOUND": "CC[C@H](CO)Nc1nc(NCc2ccccc2)c2ncn(C(C)C)c2n1",
    "COX15 protein expression, fluorescence units": 954
  }
]

Here's the next entry for you.
Given CN1CC[C@@H](c2c(O)cc(O)c3c(=O)cc(-c4ccc(C(F)(F)F)cc4Cl)oc23)[C@@H]1CO.Cl (relative stereo) [P1446A] , state its recorded COX15 protein expression.
896

====

As shown below, each of these compounds has a reported BAX protein expression value.
System: Panc-1 cells
Assay: Protein expression using high content cell imaging system, and efficacy score
Format: cell-based
Settings: 16 hours post treatment; control 711
Respond with the figure and its unit, in that order.

[
  {
    "COMPOUND": "CC[C@H](CO)Nc1nc(NCc2ccccc2)c2ncn(C(C)C)c2n1",
    "BAX protein expression": "747 fluorescence units"
  }
]

BAX protein expression for "CN1CC[C@H](c2c(O)cc(O)c3c(=O)cc(-c4ccccc4Cl)oc23)[C@H](O)C1" ?
252 fluorescence units

Next up: "Nc1ccn([C@@H]2O[C@H](CO)[C@@H](O)C2(F)F)c(=O)n1"
926 fluorescence units

Next entry: CN1CC[C@@H](c2c(O)cc(O)c3c(=O)cc(-c4ccc(C(F)(F)F)cc4Cl)oc23)[C@@H]1CO.Cl (relative stereo) [P1446A]
688 fluorescence units

Another compound to check: CN1CC[C@@H](c2c(O)cc(O)c3c(=O)cc(-c4ccccc4Cl)oc23)[C@@H]1CO.Cl (relative stereo)
644 fluorescence units

====

Tested on: Panc-1 cell line
Test: Gene expression profile using RTQ-PCR
Type: cell-based
Conditions: Panc1, RTQ-PCR
ENDPOINT_NAME: PTN gene expression vs control cells with no drug treatment (log 2 fold ratio)
Express the result in log 2 fold ratio but write the number alone.

[
  {
    "MOLECULE": "CC[C@H](CO)Nc1nc(NCc2ccccc2)c2ncn(C(C)C)c2n1 [drawing 2]",
    "UNIT_LABEL": "log 2 fold ratio",
    "MEASURED_VALUE": "−0.28"
  }
]

Which measured PTN gene expression vs control cells with no drug treatment belongs to Nc1ccn([C@@H]2O[C@H](CO)[C@@H](O)C2(F)F)c(=O)n1 [drawing 1] , tested on Panc-1 cell line?
0.68

Queued: CN1CCC(c2c(O)cc(O)c3c(=O)cc(-c4ccccc4Cl)oc23)C(O)C1 (stereo not shown) [drawing 5]
−0.24

Next molecule: CN1CC[C@@H](c2c(O)cc(O)c3c(=O)cc(-c4ccc(C(F)(F)F)cc4Cl)oc23)[C@@H]1CO.Cl [drawing 3]
0.40

====

System: Panc-1 cells
Assay: Protein expression using high content cell imaging system, and efficacy score; on GADD45-α protein expression: test concentration or dose not given here
Type: cell-based
Settings: 6 hours post treatment; control 3
Decision: GADD45-α protein expression compared against 3 fluorescence units; not below it gives MET, below it gives NOT MET.

The examples below pair each entry with its known result.
[
  {
    "COMPOUND": "CN1CC[C@H](c2c(O)cc(O)c3c(=O)cc(-c4ccccc4Cl)oc23)[C@H](O)C1 [Flavopiridol]",
    "ASSIGNED_CLASS": "NOT MET"
  },
  {
    "COMPOUND": "CN1CC[C@@H](c2c(O)cc(O)c3c(=O)cc(-c4ccccc4Cl)oc23)[C@@H]1CO.Cl (relative stereo) [P276-00]",
    "ASSIGNED_CLASS": "MET"
  },
  {
    "COMPOUND": "Nc1ccn([C@@H]2O[C@H](CO)[C@@H](O)C2(F)F)c(=O)n1 [Gemcitabine, 2′, 2′-difluorodeoxycytidine]",
    "ASSIGNED_CLASS": "MET"
  }
]

Next item in the queue.
Answer whether GADD45-α protein expression of CC[C@H](CO)Nc1nc(NCc2ccccc2)c2ncn(C(C)C)c2n1 [Roscovitine] is greater than or equal to 3 fluorescence units.
NOT MET

====

// CDK2 gene expression vs control cells with no drug treatment lookup, one value per entry
Test system: Panc-1 cell line
Assay: Gene expression profile using RTQ-PCR
Format: cell-based
Conditions: Panc1, RTQ-PCR
Method: The objective of the experiment was to evaluate the synergistic effect of drug combination (Gemcitabine with […]) as compared to individual use of the same. The synergistic effect of the compound or drug combination in the Panc-1 cell line was measured in terms of gene expression and expressed as fold changes as compared to the cell control with no drug treatment. […]
Field format: number, assumed log 2 fold ratio, no unit text.

// worked examples, CDK2 gene expression vs control cells with no drug treatment included
[
  {
    "COMPOUND": "Nc1ccn([C@@H]2O[C@H](CO)[C@@H](O)C2(F)F)c(=O)n1 [drawing 10]",
    "TESTED_TARGET": "Panc-1 cell line",
    "MEASURED_VALUE": 0.50
  },
  {
    "COMPOUND": "CN1CC[C@@H](c2c(O)cc(O)c3c(=O)cc(-c4ccc(C(F)(F)F)cc4Cl)oc23)[C@@H]1CO.Cl [drawing 12]",
    "TESTED_TARGET": "Panc-1 cell line",
    "MEASURED_VALUE": 0.96
  },
  {
    "COMPOUND": "CC[C@H](CO)Nc1nc(NCc2ccccc2)c2ncn(C(C)C)c2n1 [drawing 11]",
    "TESTED_TARGET": "Panc-1 cell line",
    "MEASURED_VALUE": 0.29
  },
  {
    "COMPOUND": "CN1CC[C@@H](c2c(O)cc(O)c3c(=O)cc(-c4ccccc4Cl)oc23)[C@@H]1CO.Cl",
    "TESTED_TARGET": "Panc-1 cell line",
    "MEASURED_VALUE": "−0.21"
  }
]

// moving on: another record for CDK2 gene expression vs control cells with no drug treatment
Given the entry CN1CCC(c2c(O)cc(O)c3c(=O)cc(-c4ccccc4Cl)oc23)C(O)C1 (centres unmarked) [drawing 14] , report its measured CDK2 gene expression vs control cells with no drug treatment.
0.74
